Source: patent US20150197559A1

- STUDY_SYSTEM: BoNT/B2 (Clostridium botulinum)
- METHOD_NOTES: KinExA flow fluorimetry, IgG in solution
PROPERTY_NAME: pKd
One number for each entry, as −log10 of the molar value.

1B18 IgG (antibody, V domains shown) VH: EVQLVQSGGGLVQPGGSRRLSCAASGFYFNAYWMTWVRQAPGKGLEWVANINLDGTEIYYLDSVKGRFTVSRDNVKNSVFLQMSSLRVEDTAVYFCARLEWGGRNGWVSPWGQGTLVTVSS VL: DVVMTQSPSSVSASVGDRVTITCRASQSISSYLNWYQQRPGKAPKLLIFAASSLQSAVPSRFSGSGSGTDFTLTISSLQPEDFATYYCQQSYSTPPTFGQGTKVEIKR    9.09

Now, please, on to the next binder.
Recorded pKd for 1B22 IgG (antibody, V domains shown) VH: QVQLQESGSRLVKPSQTLSLTCGVSGGSISSSSYSWSWIRQTPGKGLEWIGYIYHSGSTYYNPSLKSRVTMSVDKSRNQFSLNMSSVTAADTAVYYCARTAFYYENTGPIRCYLDFWGQGTLVTVSS VL: DIQMTQSPSTLSASIGDRVTISCRASQSIQSWLAWYQQRPGEAPKLLIYSASTLQTGVPSRFSGSGSGTDFTLTISSLQPEDFATYYCQQYNSYPLTFGQGTKLEIK , please?
9.50
